Reference source for all entries: the MegaScale stability set (Tsuboyama et al. 2023)

B1: EEHEE_rd4_0003 (parent)
chain: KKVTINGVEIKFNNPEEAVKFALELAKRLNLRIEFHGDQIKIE

Variants of: B1
measurement.notes: folding stability dG (cDNA display proteolysis); higher = more stable
condition.description: PBS, room temperature
measured.quantity: folding stability dG (kcal/mol)
Write the answer as a number in kcal/mol, unit excluded.

Check out these entries, answers already filled in.
KKVTINGVEIKFNSPEEAVKFALELAKRLNLRIEFHGDQIKIE [N14S]    2.93
KKITINGVEIKFNNPEEAVKFALELAKRLNLRIEFHGDQIKIE [V3I]    2.48
KKVTINGVEIKFNNPEYAVKFALELAKRLNLRIEFHGDQIKIE [E17Y]    2.56

State the recorded folding stability dG for this entry: KKVTINGVEIKFNNPEEAVKFALELAKRTNLRIEFHGDQIKIE [L29T]
1.61

State the recorded folding stability dG for this entry: KKVTINGVEIKFNNPEEAVKFALELAKRLNLRHEFHGDQIKIE [I33H]
0.908

State the recorded folding stability dG for this entry: KKVTINGVEIKFNNPEEAVKFALELAKRLNLRIESHGDQIKIE [F35S]
1.64

State the recorded folding stability dG for this entry: KKVTINGVEIKFNNPEEAVKFALELAKRLNLRIQFHGDQIKIE [E34Q]
2.44

State the recorded folding stability dG for this entry: KKVTINGVEIKFNNPEEAVKFALELAKRLNLRIEFHGMQIKIE [D38M]
2.34
